- Experimental protocol: yeast display, Sf9 membrane polyspecificity reagent, FACS + sequencing; frameworks hold sequencing errors
Readout name: polyreactivity (PSR sort gate)

QVQLVESGGGLVQAGGILRISCAASGFIFWKNAMGWYRQAPGKERELVAAISRGGSTYYADSVKGRFTISRDNAKKTVYLQMNSLKPEDTAFYYCNKVGGATDKYLYYYWGQATQVTVSS : high polyreactivity
QFQLVESGGGLVQPGGRLRLICAASGHNFPLNAMGWYRQAPGKERELVAAISRTGGSTYYADSVKGRFTISRDNAKFSVYLQMNSLKPEDTALYFCAKRGQACEDYWGEGTQVTVSS : high polyreactivity

----------
- Experimental protocol: yeast display, Sf9 membrane polyspecificity reagent, FACS + sequencing; frameworks hold sequencing errors
Readout name: polyreactivity (PSR sort gate)

Use the examples below as a reference point.
QVQLVESGGGLVQEGGSLRLICAASGRTFRHNVMGWYRQAPGKQRELVAAISYSGGSTHYADSVKGRFTISRDNAKYTVYLQMNSLKPVDTAVYYCNRYSYDSHFLYPFRGHDYWGQGTQVTVSS : low polyreactivity
QVQLVESGGGLVQAGGSLRLSCAASGSTFKAYAMGWYRQAPGKERELVAAITYNGGSTYYADSVKGRFTISRDNEKNTVYLQMNSLKPEDTAVYYCAKRETGRRDPRRSTQYRYEYWGQGTQVTVSS : low polyreactivity
QVQLVESGGGLVQAGGSLRLSCAASGIIFRGYAMRWYRQAPGKVREVVAVITSGGGTYYADSVKGRFTISRDNAKNNVYLQMNSLKPEETAVYYCNAASSLPGYDYWGQGTQVTVSS : high polyreactivity
QVQLVESGGGLVQAGGSLRLSCAASGSIFSKNAMGWYRQAPGKERELVAAISWSGDRTYYADSVKGRFTISRDNAKNTVYLQMNSLKPEDTAVYYCAADYTVKYGYWGQGTQVTVSS : high polyreactivity
QVQLVESGGGLVQAGGSLRLSCAASGNTFYVYTMGWYRQAPGKERELVAAISSTGDRTYYADSVKGRFTISRDYAKNTVYLQMNSLKPEETAVYYCAARLYRGYRGYYYWGQGTQVTVSS : high polyreactivity
QVQLVESGGGLVQAGGSLRLSCAAYGYIFRLYAMGWYRQAPGKERELVAGISTGGRTNYADSVKGRFTISRDNAKNTVYLQMNSLKPEDTAVYYCAAAWHTAYWVVSDSLGGGYWGQGTQVTVSS : low polyreactivity
QDQLVESGGGIVQAGGILRLSCASSGFIFRGYAMGWYRQAPGKEWELVAAINSGDSTNYADSVKGRFTISRDNAKNTVSLQMNSLKREDTAVYYCAASIYAALNGGEGYDYWGQGTQVTVSS : low polyreactivity
QVQLVESGGGLVQEGGSLRLSCAASGSIFRFYVMGWYRQAPGKERELVAAISIGGSTNYADSVKGRFTISRDNAKNTVYLQMNSRKPEDTAVYYCAADDWYGAGLPHGTEFDYWGQGTQVTVSS : low polyreactivity

Let us examine a further case.
QUERY: Record request: polyreactivity (PSR sort gate) value, item QVQLVESGGGLVQAGGSLRLSCAASGRTFRWYAMGWYRQAPGKERELVAAISGSGDRTYYADSVKGRFTISRDNAKNTVYLQMNSLKPEDTAVYYCNKAYLLYYTYARGDYWGQGTQVTVSS
RESULT: high polyreactivity
